TEST SYSTEM: ΔF508-CFTR (Homo sapiens, UniProt P13569, DEL508-508)
Construct: host or cells: CFBE41o-, doxycycline-inducible
Sequence (P13569 with tags, fused parts or gaps DEL508-508): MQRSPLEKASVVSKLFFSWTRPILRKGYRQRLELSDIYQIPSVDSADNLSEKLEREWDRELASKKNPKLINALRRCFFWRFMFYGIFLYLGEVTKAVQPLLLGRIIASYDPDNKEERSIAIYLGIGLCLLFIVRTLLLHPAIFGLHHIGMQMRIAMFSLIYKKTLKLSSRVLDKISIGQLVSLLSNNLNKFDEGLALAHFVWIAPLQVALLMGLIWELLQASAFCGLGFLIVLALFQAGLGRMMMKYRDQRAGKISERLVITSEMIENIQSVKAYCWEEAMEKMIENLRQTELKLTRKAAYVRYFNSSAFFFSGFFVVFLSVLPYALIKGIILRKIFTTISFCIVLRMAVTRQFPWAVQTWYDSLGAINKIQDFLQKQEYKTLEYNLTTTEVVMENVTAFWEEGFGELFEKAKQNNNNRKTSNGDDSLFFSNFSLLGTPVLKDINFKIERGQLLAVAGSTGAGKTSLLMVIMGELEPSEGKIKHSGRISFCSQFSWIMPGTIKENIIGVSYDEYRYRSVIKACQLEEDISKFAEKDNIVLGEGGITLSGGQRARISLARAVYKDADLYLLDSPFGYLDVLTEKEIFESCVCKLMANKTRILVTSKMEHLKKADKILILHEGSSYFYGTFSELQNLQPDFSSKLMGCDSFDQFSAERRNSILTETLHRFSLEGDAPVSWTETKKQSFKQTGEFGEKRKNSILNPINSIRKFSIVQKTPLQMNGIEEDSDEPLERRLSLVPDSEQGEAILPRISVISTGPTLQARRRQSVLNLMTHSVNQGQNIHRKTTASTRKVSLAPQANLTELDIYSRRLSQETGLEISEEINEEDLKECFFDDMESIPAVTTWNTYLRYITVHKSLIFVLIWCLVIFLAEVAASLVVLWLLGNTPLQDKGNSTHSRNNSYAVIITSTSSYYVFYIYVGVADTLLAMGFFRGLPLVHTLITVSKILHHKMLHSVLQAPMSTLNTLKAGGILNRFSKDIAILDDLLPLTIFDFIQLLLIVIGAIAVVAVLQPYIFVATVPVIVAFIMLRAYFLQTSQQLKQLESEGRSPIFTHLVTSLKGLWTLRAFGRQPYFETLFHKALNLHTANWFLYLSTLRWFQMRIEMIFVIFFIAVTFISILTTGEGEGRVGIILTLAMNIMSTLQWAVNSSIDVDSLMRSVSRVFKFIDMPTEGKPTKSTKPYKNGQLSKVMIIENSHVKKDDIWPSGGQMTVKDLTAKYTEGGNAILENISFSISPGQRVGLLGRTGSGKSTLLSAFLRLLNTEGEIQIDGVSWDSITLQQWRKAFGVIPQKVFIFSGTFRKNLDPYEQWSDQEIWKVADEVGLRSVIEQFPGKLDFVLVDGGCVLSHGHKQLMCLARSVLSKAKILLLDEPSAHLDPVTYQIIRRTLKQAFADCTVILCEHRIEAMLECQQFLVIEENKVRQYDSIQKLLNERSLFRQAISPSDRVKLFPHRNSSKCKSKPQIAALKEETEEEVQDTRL
TEST PROTOCOL: CFTR cell surface levels using HRP-tagged ΔF508-CFTR expressing CFBE cells, intrinsic corrector capacity
Format: cell-based
CONDITION DETAILS: HRP-tagged ΔF508-CFTR CFBE41o- cells, compounds alone (intrinsic corrector capacity), 20 hours at 33° C.; read-out: EC50
REPORTED PROPERTY: pEC50
Answers are plain numbers, as −log10 of the molar value.

- COCC1CCN(c2cc(C(=O)O)nc3c2c(C)nn3-c2ccccc2)CC1 [compound 291]: 5.77
- COC1CCN(c2cc(C(=O)O)nc3c2c(C(C)C)nn3-c2cccc(C)c2)CC1 [compound 192]: 6.37
- Cc1cccc(-n2nc(C(C)C)c3c(N4CCC5(CC4)CN(C)C(=O)O5)cc(C(=O)O)nc32)c1 [compound 359]: 5.69
- CC(C)c1nn(C2CCCCC2)c2nc(C(=O)O)cc(-c3ccc(N4CCC(F)(F)C4)nc3)c12 [compound 181]: 5.91
- Cc1nn(-c2ccc(F)cc2F)c2nc(C(=O)O)cc(-c3ccc(N4CCOCC4)cc3)c12 [compound 105]: 6.02
- Cc1nn(-c2ccccc2)c2nc(C(=O)O)cc(N3CCC4(CC3)CN(C)C(=O)CO4)c12 [compound 288]: 5.12

Okay, here is my list. What is pEC50 for each of these?
1. Cc1nn(-c2ccnc(F)c2)c2nc(C(=O)O)cc(-c3ccc(N4CCOCC4)cc3)c12 [compound 57]
2. Cc1nn(-c2ccccc2)c2nc(C(=O)O)cc(OC3CC4(COC4)C3)c12 [compound 344]
3. CC(C)c1nn(C2CCCCC2)c2nc(C(=O)O)cc(-c3cn[nH]c3)c12 [compound 363]
4. Cc1nn(-c2ccccc2)c2nc(C(=O)O)cc(O[C@H]3C[C@@H](N4CCS(=O)(=O)CC4)C3)c12 [compound 333]
5. COCCN(C)c1ccc(-c2cc(C(=O)O)nc3c2c(C(C)C)nn3C2CCCCC2)cc1 [compound 184]
6. CC(C)c1nn(C2CCCCC2)c2nc(C(=O)O)cc(-c3ccc(N4CCOCC4)nc3)c12 [compound 81]

a:
5.48
5.60
5.61
5.38
6.03
6.13

---

TEST SYSTEM: ΔF508-CFTR (Homo sapiens, UniProt P13569, DEL508-508)
Construct: host or cells: CFBE41o-, doxycycline-inducible
TEST PROTOCOL: CFTR cell surface levels using HRP-tagged ΔF508-CFTR expressing CFBE cells, intrinsic corrector capacity
Type: cell-based
CONDITION DETAILS: HRP-tagged ΔF508-CFTR CFBE cells; compound alone (intrinsic corrector capacity); 20 hours at 33° C.
% Activation of 200% or higher: satisfied. Under 200%: not satisfied.

- CC(C)Oc1cccc(-n2nc(C3CCC3)c3c(N4CCC(N5CCOCC5)CC4)cc(C(=O)O)nc32)n1: satisfied

q: Would you say "CC(C)COC(=O)N1CCN(c2cc(C(=O)O)nc3c2c(C2CCC2)nn3-c2ccc(F)cc2)CC1" shows % Activation at minimum 200%?
a: satisfied

q: Then this molecule: "COC1CCN(C2CCN(c3cc(C(=O)O)nc4c3c(O)nn4-c3ccc(F)cc3)CC2)CC1"
a: not satisfied

q: Quick one: "O=C(O)c1cc(N2CCC(N3CCOCC3)CC2)c2c(C3CCC3)nn(-c3ccnc(OC4CCOCC4)c3)c2n1"
a: not satisfied

q: Next molecule up: "CC(C)Oc1nn(C2CCCCC2)c2nc(C(=O)O)cc(-c3ccc(C#N)cc3)c12"
a: not satisfied

q: Also "COc1cc(F)cc(-n2nc(C3CCC3)c3c(N4CCC(N5CCOCC5)CC4)cc(C(=O)O)nc32)c1" ?
a: satisfied

q: Proceed to "COC1CCN(C2CCN(c3cc(C(=O)O)nc4c3c(OC(C)C)nn4-c3ccc(F)cc3)CC2)CC1"
a: satisfied

q: Now consider "CC(F)(F)c1cccc(-n2nc(C3CCC3)c3c(N4CCC(N5CCOCC5)CC4)cc(C(=O)O)nc32)c1" .
a: satisfied

q: Proceed to "CCOC(=O)N1CCN(c2cc(C(=O)O)nc3c2c(C2CCC2)nn3-c2ccc(F)cc2)CC1"
a: satisfied

q: Also "CC(C)Oc1nn(C2CCCCC2)c2nc(C(=O)O)cc(-c3ccc(CN4CC(N(C)C)C4)cc3)c12" , if possible.
a: not satisfied

q: Same lookup for "O=C(O)c1cc(N2CCC(N3CCOCC3)CC2)c2c(C3CCC3)nn(-c3ccc(OC(F)F)cc3)c2n1" , please.
a: satisfied

q: Continue with "CN1CCC2(CC1)CCN(c1cc(C(=O)O)nc3c1c(C1CCC1)nn3-c1ccc(F)cc1)CC2"
a: satisfied

---

TEST SYSTEM: ΔF508-CFTR (Homo sapiens, UniProt P13569, DEL508-508)
Construct: host or cells: CFBE41o-, doxycycline-inducible
TEST PROTOCOL: CFTR cell surface levels using HRP-tagged ΔF508-CFTR expressing CFBE cells, in the presence of a co-corrector
Type: cell-based
CONDITION DETAILS: HRP-tagged ΔF508-CFTR expressing CFBE cells, in the presence of 3 μM co-corrector
Text: Measuring CFTR Cell Surface Levels Using HRP-Tagged AF508-CFTR Expressing CFBE Cells The HRP-tagged AF508-CFTR cell assay measures the expression of CFTR-ΔF508 at the plasma membrane. […] When HRP-tagged AF508-CFTR is present at the plasma membrane, the HRP enzyme activity can be measured. The amount of CFTR-ΔF508 that can be rescued to the plasma membrane is correlated with the amount of functional enzyme that can be measured. […]
REPORTED PROPERTY: % Activation (%)
Numbers only, in %.

Some compounds with recorded % Activation:
* CN(c1ccc(-c2cc(C(=O)O)nc3c2c(C2CCC2)nn3-c2cccc(N3CCCC3)c2)cn1)C1CCOCC1 | 630.25
* O=C(O)c1cc(-c2ccc(N3CCOCC3)cc2)c2c(C3CCC3)nn(-c3cccc(F)c3)c2n1 | 382.73
* CC(C)N1CNC(=O)C12CCN(c1cc(C(=O)O)nc3c1c(C1CCC1)nn3-c1ccccc1)CC2 | 360.3
* Cc1nn(-c2ccccc2)c2nc(C(=O)O)cc(-c3ccc(N4CCC5(CC4)COC5)cc3)c12 | 353.7
* CO[C@@H]1CCN(c2cc(C(=O)O)nc3c2c(C2CCC2)nn3-c2ccccc2)C1 | 294.1

// each compound listed below needs its % Activation
1. CC(=O)N1CCN(c2cc(C(=O)O)nc3c2c(C(C)C)nn3-c2ccc(F)cc2)CC1
2. COCC1(OC)CCN(c2cc(C(=O)O)nc3c2c(C2CCC2)nn3-c2ccccc2)CC1

a:
[290.8, 284.5]

---

TEST SYSTEM: ΔF508-CFTR (Homo sapiens, UniProt P13569, DEL508-508)
Construct: host or cells: CFBE41o-, doxycycline-inducible
TEST PROTOCOL: CFTR cell surface levels using HRP-tagged ΔF508-CFTR expressing CFBE cells, in the presence of a co-corrector
Format: cell-based
CONDITION DETAILS: HRP-tagged ΔF508-CFTR expressing CFBE cells, in the presence of 3 μM co-corrector; read-out: EC50
# if measured EC50 < 800 nM: 1.0  # else: 0.0

Field: example entries. Status: answers known.
• Cc1ncn(C)c(=O)c1CCN1CCN(c2cc(C(=O)O)nc3c2c(C2CCC2)nn3-c2ccccc2)CC1 = 0.0
• CC(C)c1nn(-c2ccc(F)c(F)c2)c2nc(C(=O)O)cc(-c3ccc(N(C)C4CCOCC4)cc3)c12 = 1.0
• CN(C[C@H]1CCN(c2cc(C(=O)O)nc3c2c(C2CCC2)nn3-c2ccccc2)C1)C(=O)OC(C)(C)C = 0.0

# ---- query molecule ----
q: Is 800 nM strictly greater than the molecule's reported EC50? molecule: "Cc1nn(-c2ccccc2)c2nc(C(=O)O)cc(OC[C@@H](F)C3CCOCC3)c12"
a: 0.0

---

TEST SYSTEM: ΔF508-CFTR (Homo sapiens, UniProt P13569, DEL508-508)
Construct: host or cells: CFBE41o-, doxycycline-inducible
TEST PROTOCOL: CFTR cell surface levels using HRP-tagged ΔF508-CFTR expressing CFBE cells, in the presence of a co-corrector
Format: cell-based
CONDITION DETAILS: HRP-tagged ΔF508-CFTR expressing CFBE cells, in the presence of 3 μM co-corrector
REPORTED PROPERTY: % Activation (%)
Answers are plain numbers, in %.

• CC(C)(C)OC(=O)NC[C@@H]1CCN(c2cc(C(=O)O)nc3c2c(C2CCC2)nn3-c2ccccc2)C1 = 357.4
• O=C(O)c1cc(N2CC[C@H](F)C2)c2c(C3CCC3)nn(-c3ccccc3)c2n1 = 291.2
• CC(C)c1nn(-c2cccc(N(C)C)c2)c2nc(C(=O)O)cc(N3CCC(C(F)(F)F)C3)c12 (stereo not drawn) = 430.4
• CC(C)c1nn(C2CCCOC2)c2nc(C(=O)O)cc(-c3ccc(N4CCC(C#N)CC4)nc3)c12 (stereo not drawn) = 278.05

For the 5 compounds below, give their % Activation values.
1. CC(C)c1nn(C2CCCCC2)c2nc(C(=O)O)cc(-c3ccc(N4CCOCC4)cc3)c12
2. O=C(O)c1cc(N2CC(N3CCOC3=O)C2)c2c(C3CCC3)nn(-c3ccccc3)c2n1
3. COCCN1CCN(C2CCN(c3cc(C(=O)O)nc4c3c(C3CCC3)nn4-c3ccccc3)CC2)CC1
4. CC(C)c1nn(-c2cccc(N(C)C)c2)c2nc(C(=O)O)cc(-c3ccc(N(C)C4CCOCC4)cc3)c12
5. CC(C)Oc1cc(-n2nc(C3CCC3)c3c(N4CCC(N5CCOCC5)CC4)cc(C(=O)O)nc32)ccn1

a:
1: 392.6; 2: 126.7; 3: 421.9; 4: 674.35; 5: 490.9

Your task in this section: give % Activation for each listed record.
1. O=C(O)c1cc(OCC2CCOCC2)c2c(C3CCC3)nn(-c3ccccc3)c2n1
2. CC1(c2nn(-c3ccccc3)c3nc(C(=O)O)cc(-c4ccc(N5CCOCC5)cc4)c23)CCC1
3. O=CN1CCN(CC2CCN(c3cc(C(=O)O)nc4c3c(C3CCC3)nn4-c3ccccc3)CC2)CC1
4. Cc1nn(-c2ccccc2)c2nc(C(=O)O)cc(N3CCC(NS(C)(=O)=O)CC3)c12

a:
1. 322
2. 346.12
3. 499.3
4. 123.5

Please go through the list and note % Activation for each compound.
1. CC(C)OC1CN(c2cc(C(=O)O)nc3c2c(C2CCC2)nn3-c2ccccc2)C1
2. C[C@H]1CN(c2cc(C(=O)O)nc3c2c(C2CCC2)nn3C2CCCCC2)CCN1Cc1ccccc1

a:
1: 376; 2: 242.75
